Values were extracted from PubChem BioAssay (NCI).

# System: EKVX NSCLC
# Experiment: NCI tumour cell line growth inhibition, 48 h
Below, each of the molecules is paired with its reported TGI value.

Use these answered entries as a reference point.
[[record]]
molecule = "CC(=O)NC1C(OCc2ccccc2)OC(CO)C(O)C1OCC(=O)NC(C)C(=O)NC(CCC(=O)Nc1ccc2c(c1)CN1C(=O)c3ccccc3C1=N2)C(N)=O (stereo not drawn)"
result = "> 100 µM"

[[record]]
molecule = "Fc1cccc(C=NC23CC4CC(CC(C4)C2)C3)c1"
result = "> 100 µM"

[[record]]
molecule = "O=C1Nc2ccccc2/C1=C\\c1c(Cl)[nH]c2ccccc12"
result = "5.29 µM"

[[record]]
molecule = "COc1ccc2c(c1)CC[C@@H]1C2CC[C@]2(C)C(=O)N(C)C(=O)CC12 (stereo partly drawn)"
result = "> 100 µM"

[[record]]
molecule = "O=[N+]([O-])c1ccc2nc(/C=C(\\O)c3ccccc3)c(/C=C(\\O)c3ccc(Cl)cc3)nc2c1"
result = "> 100 µM"

[[record]]
molecule = "COc1ccc([N+](=O)[O-])cc1[I+]c1cc([N+](=O)[O-])ccc1OC"
result = "> 100 µM"


Item OCCC#Cc1ccccc1C#Cc1ccccc1 has what recorded TGI?
24.3 µM

Item COc1cc2c(c(Br)c1N)-c1cc(Br)c(N)cc1C2=O has what recorded TGI?
> 100 µM
